Tested on: HEK293 cells
Assay: Preliminary screening as DNA vectors, GFP transfection of HEK293 cells
Assay type: cell-based
Conditions: HEK293 cells; lipid/DOPE liposome with 75 ng plasmid DNA (psin-EGFP-IRES-Puro); number of cells expressing GFP divided by total number of nuclei (Hoechst)
Absolute DNA transfection efficiency in HEK293 cells less than 2% is condition met; Absolute DNA transfection efficiency in HEK293 cells greater than or equal to 2% is condition not met.

> print(dat)
                                   compound           tgt                cat
1  CCCCCCCCCCCCNc1nc(NCCN2CCCCC2)nc(N(CCCCCCCCCCCC)CCCCCCCCCCCC)n1 [N12^2N12D4]  HEK293 cells  condition not met
2  CCCCCCCCCCCCNc1nc(NCCCCCCCCC)nc(NCCCN(C)C)n1 [Compound N9N12D6]  HEK293 cells      condition met
3  CCCCCCCCCNc1nc(NCCCCCCCC)nc(NCCCN2CCN(C)CC2)n1 [Compound N8N9D9]  HEK293 cells      condition met
4  CCCCCCCCCCCCCCCSc1nc(NCCCN2CCOCC2)nc(SCCCCCCCCCCCCCC)n1 [Compound S14S15D8]  HEK293 cells      condition met
5  CCCCCCCCCCCCCCCCCCNc1nc(NCCCCCCCCCCC)nc(NCCCN(C)C)n1 [Compound N11N18D6]  HEK293 cells      condition met
6  CCCCCCCCCCCCCCCSc1nc(NCCN(CC)CC)nc(SCCCCCCCCCCCCCC)n1 [Compound S14S15D7]  HEK293 cells      condition met
7  CCCCCCCCCCCCN(CCCCCCCCCCCC)c1nc(NCCCCCCC)nc(NCCN2CCCC2)n1 [N7^2N12D3]  HEK293 cells  condition not met
8  CCCCCCCCCCCCCCCCCCSc1nc(NCCN(C)C)nc(SCCCCCCCCC)n1 [Compound S9S18D1]  HEK293 cells  condition not met

====

System: HEK293 cells
Test: Preliminary screening as mRNA vectors, EGFP mRNA transfection of HEK293 cells
Assay type: cell-based
Conditions: HEK293 cells, 96-well plates, EGFP mRNA 50 ng per well; percentage of GFP fluorescent cells relative to total number of cells (Hoechst)
Protocol: Cell line: HEK293 cells (ATCC CRL-1573™) Medium: DMEM supplemented with 10% fetal bovine serum (Invitrogen) Screening: cell transfection on 96-well plates Detection (readout): percentage of the number of GFP fluorescent cells relative to the total number of cells (the total number of cells was determined using nucleus dye Hoechst). Lipofectamine2000 (Invitrogen) was used as the positive control. […]
# key: entry, value: Absolute mRNA transfection efficiency in HEK293 cells
result type: Absolute mRNA transfection efficiency in HEK293 cells (%)

> print(dat)
                         compound.structure  endpoint.unit  measured.value
1  CCCCCCCCCCCCCCSc1nc(NCCN2CCN(C)CC2)nc(SCCCCCCCCCCCCCC)n1              %             0.0
2  CCCCCCCCCCCCCCCCCCSc1nc(NCC2CCN(C)CC2)nc(SCCCCCCCCCC)n1              %            54.6
3  CCCCCCCCCCCCCCSc1nc(NCCCN2CCOCC2)nc(SCCCCCCCCC)n1              %            11.6
4   CCCCCCCCCCCNc1nc(NCCCCCC)nc(NCCN(C)C)n1              %             0.1
5  CCCCCCCCCCCCCCCCCCNc1nc(NCC2CCN(C)CC2)nc(N(CCCCCCCCCCCC)CCCCCCCCCCCC)n1              %             2.2
6  CCCCCCCCCCCCSc1nc(NCCN(CC)CC)nc(SCCCCCCCCCCCC)n1              %             1.3
7    CCCCCCCNc1nc(NCCCCCCC)nc(NCCN2CCCC2)n1              %             0.0
8  CCCCCCCCCCCCN(CCCCCCCCCCCC)c1nc(NCCCCCCCCC)nc(NCCCN2CCN(C)CC2)n1              %             3.9

====

# key: entry, value: Absolute DNA transfection efficiency in HEK293 cells
Test system: HEK293 cells
Assay: Preliminary screening as DNA vectors, GFP transfection of HEK293 cells
Format: cell-based
Conditions: HEK293 cells; lipid/DOPE liposome with 75 ng plasmid DNA (psin-EGFP-IRES-Puro); number of cells expressing GFP divided by total number of nuclei (Hoechst)
result type: Absolute DNA transfection efficiency in HEK293 cells (%)

> print(dat)
                         compound.structure  measured.value
1  CCCCCCCCCCCCCCCNc1nc(NCCCCCCC)nc(NCCCN2CCN(C)CC2)n1             0.6
2  CCCCCCCCCCCNc1nc(NCCCCCCCCC)nc(NCCCN2CCN(C)CC2)n1             0.0
3  CCCCCCCCCCCCCCCNc1nc(NCCCCCCCCCCCC)nc(NCC2CCN(C)CC2)n1             0.7
4  CCCCCCCCCCCCCCCCNc1nc(NCCCCCCCC)nc(NCCN(CC)CC)n1             3.1
5  CCCCCCCCCCCCCCSc1nc(NCCN(C)C)nc(SCCCCCCCCCCCC)n1             0.6
6  CCCCCCCCCCCCNc1nc(NCCCCCCCC)nc(NCCN(CC)CC)n1             0.0
7  CCCCCCCCCCCCCCCNc1nc(NCCCCCCCCC)nc(NCCN2CCN(C)CC2)n1             0.2
8    CCCCCCCCNc1nc(NCCCCCC)nc(NCCN2CCCC2)n1             0.1

====

Tested on: embryonic stem cells (hESC2)
Experiment: Screening as mRNA vectors in embryonic stem cells
Assay type: cell-based
Conditions: 50 ng EGFP mRNA per well
Class boundaries, taken from values of Absolute mRNA transfection efficiency in embryonic stem cells, are as follows: label 0 (below 3%), label 1 (3% to below 20%), label 2 (20% or more)

> print(dat)
                          compound.structure      cat
 1  CCCCCCCCCCCCCCCSc1nc(NCCN2CCCC2)nc(SCCCCCCCCC)n1  label 1
 2  CCCCCCCCCCCSc1nc(NCCCCCCCC)nc(NCCN2CCN(C)CC2)n1  label 1
 3  CCCCCCCCCCCCSc1nc(NCCCN(C)C)nc(SCCCCCCCC)n1  label 1
 4  CCCCCCCCCCCSc1nc(NCCCCCCCCC)nc(NCCCN2CCN(C)CC2)n1  label 2
 5  CCCCCCCCCCCNc1nc(NCCN2CCN(C)CC2)nc(SCCCCCCCC)n1  label 0
 6  CCCCCCCCCCCCCCSc1nc(NCCCN(C)C)nc(SCCCCCCCCC)n1  label 0
 7  CCCCCCCCCCCCSc1nc(NCCN2CCN(C)CC2)nc(SCCCCCCCC)n1  label 2
 8  CCCCCCCCCCCCCCSc1nc(NCCCN2CCN(C)CC2)nc(SCCCCCCCCC)n1  label 1
 9  CCCCCCCCCCCCNc1nc(NCCN2CCN(C)CC2)nc(SCCCCCCCCC)n1  label 1
10  CCCCCCCCCCCNc1nc(NCC2CCN(C)CC2)nc(SCCCCCCCCC)n1  label 0
11  CCCCCCCCCCCCSc1nc(NCCCN2CCOCC2)nc(SCCCCCCCCC)n1  label 0
12  CCCCCCCCCCCSc1nc(NCCCCCCCCC)nc(NCCN2CCN(C)CC2)n1  label 2

====

# key: entry, value: Absolute DNA transfection efficiency in embryonic stem cells
System: embryonic stem cells (hESC2)
Assay: Screening as DNA vectors in embryonic stem cells, flow cytometry
Format: cell-based
Details: 75 ng plasmid DNA, 48 hours after transfection, flow cytometer
result type: Absolute DNA transfection efficiency in embryonic stem cells (%)

> print(dat)
                                   molecule  endpoint.unit  measured.value
1  CCCCCCCCCCCNc1nc(NCCN2CCN(C)CC2)nc(SCCCCCCCCC)n1 [Compound S9N11D5]              %             3.0
2  CCCCCCCCCCCSc1nc(NCCCCCCCC)nc(NCCCN2CCN(C)CC2)n1 [Compound S11N8D9]              %             3.6
3  CCCCCCCCCCCCCCCSc1nc(NCCCN2CCN(C)CC2)nc(SCCCCCCCCC)n1 [Compound S9S15D9]              %            21.6
4  CCCCCCCCCCCSc1nc(NCCCCCCCCC)nc(NCCCN(C)C)n1 [Compound S11N9D6]              %             1.0
5  CCCCCCCCCCCSc1nc(NCCCCCCCC)nc(NCCCN2CCOCC2)n1 [Compound S11N8D8]              %             0.0
6  CCCCCCCCCCCSc1nc(NCCN2CCCC2)nc(SCCCCCCCC)n1 [Compound S8S11D3]              %             0.7
